Data origin: ChEMBL document CHEMBL1140340

# Tested On: Sodium-dependent serotonin transporter (Rattus norvegicus, UniProt P31652)
# Sequence (P31652 whole entry): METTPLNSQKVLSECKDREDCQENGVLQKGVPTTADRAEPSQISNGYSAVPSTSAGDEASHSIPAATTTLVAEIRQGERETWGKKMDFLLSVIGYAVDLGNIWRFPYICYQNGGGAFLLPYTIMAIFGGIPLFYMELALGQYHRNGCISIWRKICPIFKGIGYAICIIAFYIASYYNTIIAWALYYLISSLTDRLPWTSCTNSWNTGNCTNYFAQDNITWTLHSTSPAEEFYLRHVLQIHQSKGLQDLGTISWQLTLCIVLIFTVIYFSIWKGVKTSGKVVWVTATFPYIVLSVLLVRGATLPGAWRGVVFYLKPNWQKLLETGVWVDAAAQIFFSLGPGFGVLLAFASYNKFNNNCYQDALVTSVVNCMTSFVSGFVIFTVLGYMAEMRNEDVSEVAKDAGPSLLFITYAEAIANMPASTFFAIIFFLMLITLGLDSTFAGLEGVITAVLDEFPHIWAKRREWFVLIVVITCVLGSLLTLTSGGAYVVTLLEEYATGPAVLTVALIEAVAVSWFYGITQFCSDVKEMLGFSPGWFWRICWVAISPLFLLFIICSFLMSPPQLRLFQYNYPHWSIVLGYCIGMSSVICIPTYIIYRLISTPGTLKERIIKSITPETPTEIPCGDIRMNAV
# Assay Explanation: Inhibition of rat brain Serotonin transporter uptake as [3H]5-HT accumulation
Documented pIC50 across a set of molecules
// pIC50: -log10(molar conc.)

These solved cases illustrate the format of a correct answer.
>>> numeric_readout("OC1COC(C(c2ccccc2)c2ccccc2)CC1NCc1ccccc1 (single isomer, unassigned)")
5.35
>>> numeric_readout("OC1CC(C(c2ccccc2)c2ccccc2)OCC1NCc1ccccc1 (single isomer, unassigned)")
5.21
>>> numeric_readout("O[C@@H]1CO[C@H](C(c2ccccc2)c2ccccc2)C[C@H]1NCc1ccccc1")
4.97
>>> numeric_readout("O[C@@H]1C[C@@H](C(c2ccccc2)c2ccccc2)OC[C@H]1NCc1ccccc1")
6.06
>>> numeric_readout("COc1cc(CN[C@@H]2CO[C@H](C(c3ccccc3)c3ccccc3)C[C@H]2O)cc(OC)c1")
7.60
>>> numeric_readout("OC1CC(C(c2ccccc2)c2ccccc2)OCC1NCCc1ccc(F)cc1 (single isomer, unassigned)")
5.53
>>> numeric_readout("COc1ccc(CN[C@@H]2CO[C@H](C(c3ccccc3)c3ccccc3)C[C@H]2O)c(OC)c1")
7.62
>>> numeric_readout("O[C@@H]1C[C@@H](C(c2ccccc2)c2ccccc2)OC[C@H]1NCc1ccc(F)cc1")
6.17

# ---- query molecule ----
Query: Given OC1CC(C(c2ccccc2)c2ccccc2)OCC1NCc1ccc(F)cc1 (single isomer, unassigned) , respond with its pIC50.
Reply: 5.25
